- System: HCT-15 colon
- protocol description: NCI-60 one-dose screen, 48 h (100 = growth as untreated, 0 = no growth, -100 = all killed)
- test parameters: 10 µM unless noted
About 83,000 compounds went through this panel and 20% of them were active in at least one assay; those are over-represented in the sample as a whole.
Recorded growth by entry
Give just the number in %; leave the unit off.

COc1cc(C2CC(c3ccc(Nc4nc(NCCO)nc(Nc5ccc(Cl)cc5)n4)cc3)=Nc3c(N)nc(N)nc3N2)cc(OC)c1OC (stereo not drawn)
54.2

Please look up its growth: `C=CCn1c(SCC(=O)Nc2cccc(C(=O)/C=C/c3ccc(OC)c(OC)c3)c2)nc2ccccc2c1=O`
72.4

Please look up its growth: `Oc1ccc(CSc2nnc(-c3ccc(Oc4ccccc4)cc3)o2)c2cccnc12`
9.07

Please look up its growth: `O=C1[C@H]2Cc3c([nH]c4ccccc34)[C@H](c3ccc(Cl)cc3)N2C(=O)CN1C1CCN(Cc2c(Cl)cccc2Cl)CC1`
39.5

Please look up its growth: `COc1ccc(CN2C(=O)/C(=C/c3nc(CO)cs3)SC2=S)cc1`
64.2

Please look up its growth: `Cn1c2ccccc2c2c3c(c4c5ccc(Br)cc5oc4c21)C(=O)N(O)C3=O`
74.6

Please look up its growth: CC1(C)CC[C@]2(C(=O)O)CC[C@]3(C)C(=CCC4[C@@]5(C)C[C@@H](O)[C@@H]6OC(c7ccccc7O)OC[C@@]6(C)C5CC[C@]43C)C2C1 (stereo partly drawn)
29.8

Please look up its growth: `O=C1/C(=C/c2ccc([N+](=O)[O-])cc2)SC(=Nc2ccccc2)N1Nc1ccccc1`
39.3

----------
- Test system: SK-MEL-5 melanoma
- protocol description: NCI-60 one-dose screen, 48 h (100 = growth as untreated, 0 = no growth, -100 = all killed)
- test parameters: 10 µM unless noted
Compounds without any hit were thinned out: in the full panel of roughly 83,000, 20% have a hit. Activity calls are given as the source filed them. The calls were made as follows: active = growth percent below 10; inactive = the rest.
readout type: growth

Worked set:
CC(=O)NC(C)(C)C(=O)N1CCC[C@H]1C(=O)NC(C)(C)C(=O)N[C@@H](C)C(=O)NC(C)(C)C(=O)NC(C)(C)C(=O)N[C@@H](CCC(N)=O)C(=O)NC(C)(C)C(=O)N[C@H](C(=O)NC(C)(C)C(=O)NCC(=O)N[C@@H](CC(C)C)C(=O)NC(C)(C)C(=O)N1CCC[C@H]1C(=O)N[C@H](C(=O)NC(C)(C)C(=O)NC(C)(C)C(=O)N[C@@H](CCC(N)=O)C(=O)N[C@@H](CCC(N)=O)C(=O)N[C@H](CO)Cc1ccccc1)C(C)C)C(C)C
-45.7% [4.25 µM] (active)
CN1CCN(Cc2ccc(NC(=O)c3cncc(C#Cc4cnc5ccc(NC6CCOCC6)nn45)c3)cc2C(F)(F)F)CC1
-97.7% (active)
C#C[C@]1(O)CC[C@H]2[C@@H]3CC=C4c5sc(Nc6ccncc6)nc5CC[C@]4(C)[C@H]3CC[C@@]21C
-83.9% (active)
C#C[C@]1(O)CC[C@H]2[C@@H]3CC=C4c5sc(Nc6ccc(OC)nc6)nc5CC[C@]4(C)[C@H]3CC[C@@]21C
52.1% (inactive)

// next entry
Please look up its growth: `COc1ccc2c(C3=C(c4c[nH]c5ccccc45)C(=O)N(O)C3=O)coc2c1`
94.5% (inactive)
